# target.or.system: LIM domain kinase 1 (Homo sapiens) (UniProt P53667)
# Sequence (P53667 whole entry, looked up, the tested form may be a part): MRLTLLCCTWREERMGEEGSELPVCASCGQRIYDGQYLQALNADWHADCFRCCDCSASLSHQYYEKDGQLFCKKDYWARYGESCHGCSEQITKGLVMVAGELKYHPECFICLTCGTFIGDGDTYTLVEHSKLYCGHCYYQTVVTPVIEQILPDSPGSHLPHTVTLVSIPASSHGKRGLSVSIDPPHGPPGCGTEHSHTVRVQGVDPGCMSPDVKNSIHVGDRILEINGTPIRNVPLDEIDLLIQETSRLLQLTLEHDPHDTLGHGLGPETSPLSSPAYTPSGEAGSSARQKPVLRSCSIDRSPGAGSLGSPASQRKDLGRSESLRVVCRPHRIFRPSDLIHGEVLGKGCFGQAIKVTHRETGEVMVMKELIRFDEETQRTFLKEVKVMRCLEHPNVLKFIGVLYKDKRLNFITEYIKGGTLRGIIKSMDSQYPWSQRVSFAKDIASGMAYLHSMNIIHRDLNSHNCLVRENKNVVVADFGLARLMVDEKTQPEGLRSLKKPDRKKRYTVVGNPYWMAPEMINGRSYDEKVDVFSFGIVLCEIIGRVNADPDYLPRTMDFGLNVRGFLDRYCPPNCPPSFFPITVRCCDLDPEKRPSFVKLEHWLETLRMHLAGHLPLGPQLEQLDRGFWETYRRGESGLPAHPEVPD
# condition.summary: at 10 µM
# maps each entry to its residual activity
value.kind: residual activity (%)

* O=C1NC(=O)c2c1c1c3ccccc3[nH]c1c1[nH]c3cc(Br)ccc3c21 | 76
* Cc1nc(-c2ccccc2)c(-c2ccncc2)o1 | 86
* CC(=O)O/N=C1\C(=C2\C(=O)Nc3cc(Br)ccc32)Nc2ccccc21 | 50
* c1ccc(-c2n[nH]cc2-c2ccnc3ccccc23)nc1 | 74
* Ic1cccc(CSc2nnc(-c3ccncc3)o2)c1 | 75
* Nc1cccc(-c2cc3c(Oc4cccc(O)c4)ncnc3[nH]2)c1 | 4
